# Tgt: Cellular tumor antigen p53 (Homo sapiens) (UniProt P04637)
# Sequence (P04637 whole entry, looked up): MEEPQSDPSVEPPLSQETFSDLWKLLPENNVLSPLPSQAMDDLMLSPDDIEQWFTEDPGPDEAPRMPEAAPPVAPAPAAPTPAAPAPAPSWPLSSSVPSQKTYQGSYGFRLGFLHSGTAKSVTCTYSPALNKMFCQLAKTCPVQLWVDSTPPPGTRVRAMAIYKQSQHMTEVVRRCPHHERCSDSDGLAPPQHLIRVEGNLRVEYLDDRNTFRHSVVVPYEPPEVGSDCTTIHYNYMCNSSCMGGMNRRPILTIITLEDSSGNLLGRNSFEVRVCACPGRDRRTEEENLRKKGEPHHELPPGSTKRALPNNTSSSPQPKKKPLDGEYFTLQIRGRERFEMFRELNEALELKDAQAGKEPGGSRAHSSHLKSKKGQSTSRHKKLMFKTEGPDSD
# Assay Details: TOX21_p53_BLA_p5_ratio: Tox21 HCT-116 p53 Agonism Beta-lactamase Assay, Ratio, Phase 5 (AID 2283599)
Results filed as inconclusive are left out. Activity calls are given as the source filed them. The calls were made as follows: active = hit-call score of the fitted dose curve at least 0.9, where 1 is the maximum; inconclusive = response in the unintended direction; inactive = score below 0.9.
Pick one and only one: 1 (yes) (active), 0 (no) (inactive)

[[record]]
molecule = "CCCCCCCC/C=C\\CCCCCCCCCCCC(=O)O"
qualitative_label = "0 (no)"

[[record]]
molecule = "CNC(=O)Nc1ccc(Cl)c(Cl)c1"
qualitative_label = "0 (no)"

[[record]]
molecule = "CCN(CC)CCCC(C)Nc1c2ccc(Cl)cc2nc2ccc(OC)cc12 (stereo unspecified)"
qualitative_label = "1 (yes)"

[[record]]
molecule = "C#C[C@]1(OC(C)=O)CC[C@H]2[C@@H]3CCC4=CC(=O)CC[C@@H]4[C@H]3CC[C@@]21C"
qualitative_label = "0 (no)"

[[record]]
molecule = "CCCCCSCCCCC"
qualitative_label = "0 (no)"

[[record]]
molecule = "CCOC(=O)[C@H](CCc1ccccc1)N[C@@H](C)C(=O)N1Cc2ccccc2C[C@H]1C(=O)O"
qualitative_label = "0 (no)"

[[record]]
molecule = "CC(C)NCC(O)c1ccc2ccccc2c1 (stereo unspecified)"
qualitative_label = "0 (no)"

[[record]]
molecule = "C=C(C)C1CCC(C)(O)CC1 (stereo unspecified)"
qualitative_label = "0 (no)"

[[record]]
molecule = "NC(=S)N=Nc1ccc(NN=C(N)N)cc1"
qualitative_label = "0 (no)"

[[record]]
molecule = "NCCC(O)(P(=O)(O)O)P(=O)(O)O"
qualitative_label = "0 (no)"


Would you kindly look at the next entry?
Query block: # outcome recorded in this test, key = CCC[C@@H]1C[C@@H](C(=O)N[C@@H]([C@H]2O[C@H](SC)[C@H](OP(=O)(O)O)[C@@H](O)[C@H]2O)[C@H](C)Cl)N(C)C1
Result block: 0 (no)

----------
# Assay Details: CCTE_Mundy_HCI_Cortical_Synap_Neur_Matur_NeuriteSpotCountPerNeuron: CCTE's Synaptogenesis and Neurite Maturation Assay in rat cortical cells for Neurite Spot Count per Neuron Count, Mundy Lab (AID 2284215)
Activity calls are given as the source filed them. How the source made its calls: active means hit-call score of the fitted dose curve at least 0.9, where 1 is the maximum; inactive means score below 0.9.
Pick one and only one: active, inactive

# example entries with known answers
[[record]]
molecule = "C[C@H](CS)C(=O)N1CCC[C@H]1C(=O)O"
qualitative_label = "inactive"

[[record]]
molecule = "Cc1c(O)cccc1C(=O)N[C@@H](CSc1ccccc1)[C@H](O)CN1C[C@H]2CCCC[C@H]2C[C@H]1C(=O)NC(C)(C)C"
qualitative_label = "active"

[[record]]
molecule = "CC(C)(C)NCC(O)c1cc(O)cc(O)c1 (stereo unspecified)"
qualitative_label = "inactive"

[[record]]
molecule = "NC(N)=Nc1nc(CSCCC(N)=NS(N)(=O)=O)cs1"
qualitative_label = "inactive"

[[record]]
molecule = "CNCCC(Oc1ccc(C(F)(F)F)cc1)c1ccccc1 (stereo unspecified)"
qualitative_label = "active"


Would you kindly look at the next entry?
Query block: # outcome recorded in this test, key = CC1(C)S[C@@H]2[C@H](NC(=O)[C@H](N)c3ccc(O)cc3)C(=O)N2[C@H]1C(=O)O
Result block: inactive

----------
# Assay Details: TOX21_p53_BLA_p4_viability: Viability Assessment in the Tox21 HCT-116 p53 Agonism Beta-lactamase Assay, Phase 4 (AID 2283597);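 also: hits lower the luminescence signal meaning cytotoxicity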
Results filed as inconclusive are left out. Calls of active or inactive are those of the source. How the source made its calls: active means hit-call score of the fitted dose curve at least 0.9, where 1 is the maximum; inconclusive means response in the unintended direction; inactive means score below 0.9.
Pick one and only one: TRUE for active, FALSE for inactive

Query block: # outcome recorded in this test, key = CC(C)=CCC/C(C)=C/CC/C(C)=C/CC/C=C(\C)CC/C=C(\C)CCC=C(C)C
Result block: FALSE

Query block: Also check c1ccc([C@H]2CN3CCSC3=N2)cc1
Result block: FALSE

Query block: Also check CC(C)=CCOC(=O)c1ccccc1
Result block: FALSE

Query block: Also check CC(C(=O)O)c1ccc(C(=O)c2ccccc2)s1 (stereo unspecified)
Result block: FALSE

Query block: Also check C[n+]1cc2c3c(ccc2c2ccc4cc5c(cc4c21)OCO5)OCO3
Result block: TRUE

Query block: Also check CC(C)NCC1CCc2cc(CO)c([N+](=O)[O-])cc2N1 (stereo unspecified)
Result block: FALSE

Query block: Also check O=P(O)(O)C(O)(Cc1cccnc1)P(=O)(O)O
Result block: FALSE

Query block: Also check C[C@]12C=CC(=O)C=C1[C@@H](F)C[C@@H]1[C@@H]2[C@@H](O)C[C@@]2(C)[C@H]1CC[C@]2(O)C(=O)CO
Result block: FALSE

Query block: Also check COC(=O)C1CC(=O)C(C(=O)OC)CC1=O (stereo unspecified)
Result block: FALSE

Query block: Also check CN(C)CCOC(=O)COc1ccc(Cl)cc1
Result block: FALSE

Query block: Also check CC1(C)S[C@@H]2[C@H](N3C(=O)C(c4ccccc4)NC3(C)C)C(=O)N2[C@H]1C(=O)O (stereo partly specified)
Result block: FALSE

Query block: Also check CC(C)CCOC(=O)c1ccc(N(C)C)cc1
Result block: FALSE

Query block: Also check CC1(C)C[C@@H]1C(=O)N/C(=C\CCCCSC[C@H](N)C(=O)O)C(=O)O
Result block: FALSE

Query block: Also check CCCC(=O)OC(=O)CCC
Result block: FALSE

Query block: Also check O=C(O)c1c2ccccc2cc2ccccc12
Result block: FALSE

Query block: Also check CC(C)OC(=O)C(C)N(C(=O)c1ccccc1)c1ccc(F)c(Cl)c1 (stereo unspecified)
Result block: FALSE

Query block: Also check CCN1CCOCC1
Result block: FALSE

----------
# Tgt: Cellular tumor antigen p53 (Homo sapiens) (UniProt P04637)
# Assay Details: TOX21_p53_BLA_p3_ratio: Tox21 HCT-116 p53 Agonism Beta-lactamase Assay, Ratio, Phase 3 (AID 2283596)
Results filed as inconclusive are left out. The source made the active and inactive calls. Rule for the calls: active = hit-call score of the fitted dose curve at least 0.9, where 1 is the maximum; inconclusive = response in the unintended direction; inactive = score below 0.9.
Pick one and only one: true (1) = active, false (0) = inactive

# example entries with known answers
[[record]]
compound = "C[C@@H]1NC(=O)[C@@H](N)CNC(=O)[C@H](C2CCNC(N)=N2)NC(=O)/C(=C/NC(N)=O)NC(=O)[C@H](CNC(=O)C[C@@H](N)CCCN)NC1=O (some centres not stated)"
tgt = "Cellular tumor antigen p53 (Homo sapiens) (UniProt P04637)"
qualitative_label = "false (0)"

[[record]]
compound = "O=C(Oc1ccccc1)Oc1ccccc1"
tgt = "Cellular tumor antigen p53 (Homo sapiens) (UniProt P04637)"
qualitative_label = "false (0)"

[[record]]
compound = "CC(C)(C)NCC(O)CSc1nc(-c2ccc(C(N)=O)s2)cs1 (configuration not stated)"
tgt = "Cellular tumor antigen p53 (Homo sapiens) (UniProt P04637)"
qualitative_label = "false (0)"

[[record]]
compound = "CCc1ncnc2cc(OC)c(OC)cc12"
tgt = "Cellular tumor antigen p53 (Homo sapiens) (UniProt P04637)"
qualitative_label = "false (0)"

[[record]]
compound = "Nc1ccn([C@@H]2O[C@H](CO)[C@@H](O)C2(F)F)c(=O)n1"
tgt = "Cellular tumor antigen p53 (Homo sapiens) (UniProt P04637)"
qualitative_label = "true (1)"

[[record]]
compound = "N#CCC(=O)O"
tgt = "Cellular tumor antigen p53 (Homo sapiens) (UniProt P04637)"
qualitative_label = "false (0)"

[[record]]
compound = "CCC(=O)O[C@H]1CC[C@H]2[C@@H]3CCc4cc(O)ccc4[C@H]3CC[C@]12C"
tgt = "Cellular tumor antigen p53 (Homo sapiens) (UniProt P04637)"
qualitative_label = "false (0)"

[[record]]
compound = "CC1(O)CCC(C(C)(C)O)CC1 (configuration not stated)"
tgt = "Cellular tumor antigen p53 (Homo sapiens) (UniProt P04637)"
qualitative_label = "false (0)"

[[record]]
compound = "COC(OC)OC"
tgt = "Cellular tumor antigen p53 (Homo sapiens) (UniProt P04637)"
qualitative_label = "false (0)"

[[record]]
compound = "C[C@H](CCC(=O)O)[C@H]1CC[C@H]2[C@@H]3[C@H](O)C[C@@H]4C[C@H](O)CC[C@]4(C)[C@H]3C[C@H](O)[C@]12C"
tgt = "Cellular tumor antigen p53 (Homo sapiens) (UniProt P04637)"
qualitative_label = "false (0)"


Query block: # outcome recorded in this test, key = CCCCNC(N)=O
Result block: false (0)

Query block: Also check O=C1C2CC3CC1CC(O)(C3)C2
Result block: false (0)

----------
# Tgt: Cellular tumor antigen p53 (Homo sapiens)
# Assay Details: TOX21_p53_BLA_p3_ratio: Tox21 HCT-116 p53 Agonism Beta-lactamase Assay, Ratio, Phase 3 (AID 2283596)
Results filed as inconclusive are left out. Active and inactive are the calls of the source. Rule for the calls: active = hit-call score of the fitted dose curve at least 0.9, where 1 is the maximum; inconclusive = response in the unintended direction; inactive = score below 0.9.
Pick one and only one: active, inactive

# example entries with known answers
[[record]]
compound = "CC/C=C\\CC1=C(C)CCC1=O"
qualitative_label = "inactive"

[[record]]
compound = "N#Cc1c(F)cccc1F"
qualitative_label = "inactive"

[[record]]
compound = "C=CCOc1ccc(CC(=O)O)cc1Cl"
qualitative_label = "inactive"

[[record]]
compound = "CCCCCC=CCC1CC(=O)OC1=O (stereo unspecified)"
qualitative_label = "inactive"

[[record]]
compound = "O=C(/C=C/c1cccc(F)c1)NC1CC1"
qualitative_label = "inactive"


Query block: # outcome recorded in this test, key = CCc1nccnc1CC
Result block: inactive

Query block: Also check CCC(C)n1ncn(-c2ccc(N3CCN(c4ccc(OC[C@H]5CO[C@](Cn6cncn6)(c6ccc(Cl)cc6Cl)O5)cc4)CC3)cc2)c1=O (stereo partly specified)
Result block: inactive

Query block: Also check CO[C@@H]1[C@@H](O[C@@H]2O[C@H](C)[C@@H](O[C@H]3C[C@@](C)(O)[C@@H](OC(=O)CC(C)C)[C@H](C)O3)[C@H](N(C)C)[C@H]2O)[C@@H](CC=O)C[C@@H](C)C(=O)/C=C/C2OC2C[C@@H](C)OC(=O)C[C@H]1OC(C)=O (stereo partly specified)
Result block: inactive

Query block: Also check O=Cc1ccc(Cl)cc1
Result block: inactive

Query block: Also check CC(C)c1nc(N(C)S(C)(=O)=O)nc(-c2ccc(F)cc2)c1/C=C/C(O)CC(O)CC(=O)O (stereo unspecified)
Result block: inactive

Query block: Also check O=c1cccccc1O
Result block: inactive

Query block: Also check O=c1[nH]c2cc(C(F)(F)F)c(N3CCOCC3)cc2n(CP(=O)(O)O)c1=O
Result block: inactive

Query block: Also check CCC(C)SSC(C)CC (stereo unspecified)
Result block: inactive

The values you see were collected from PubChem BioAssay (EPA / NIEHS).
